Would you mind telling me the reported protein stability index of each entry?
- Tested on: Saccharomyces cerevisiae;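 further: PSI is a weighted mean of sequencing reads over stability bins, variants kept only with over 10 reads, mCherry proximal and sfGFP distal, peptide attached via GGGS linker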
- protocol text: protein stability index of tFT-peptide fusion (C-terminal peptide) (PSI (0-1 scale)); higher = more stable (slower turnover)
- condition description: genetic background: wild type; temperature: 30 C

[[record]]
sequence_content = "APNAGPPTRSHR"
obs_value = 0.737

[[record]]
sequence_content = "RYGDGIELVIGS"
obs_value = 0.657

[[record]]
sequence_content = "TDHTNCARDLGA"
obs_value = 0.664

[[record]]
sequence_content = "PPLPPLPPLSVS"
obs_value = 0.675

[[record]]
sequence_content = "GCASAAMFPEEL"
obs_value = 0.691

[[record]]
sequence_content = "RRQLVLVLSWVI"
obs_value = 0.377

[[record]]
sequence_content = "VKVIILYKIIEV"
obs_value = 0.381

[[record]]
sequence_content = "IFSSFCPASFFL"
obs_value = 0.757

[[record]]
sequence_content = "PLQPPHSPPFPP"
obs_value = 0.7

[[record]]
sequence_content = "DLCLRSTLPLFL"
obs_value = 0.585


// batch mode: one protein stability index value per listed entry
1. PANASAEGDTSP
2. EPLLVSPATPNL
3. VPPLRPVAPCRG
4. LRRTMRLASASF
5. GSRLIGGFIVVG
6. APTRPPRPNLFH
7. APSQGPSRPGVV

[0.682, 0.731, 0.533, 0.831, 0.636, 0.625, 0.708]
